# TESTED_SYSTEM: Signal transducer and activator of transcription 3 (Mus musculus, UniProt P42227)
# Sequence (P42227 whole entry): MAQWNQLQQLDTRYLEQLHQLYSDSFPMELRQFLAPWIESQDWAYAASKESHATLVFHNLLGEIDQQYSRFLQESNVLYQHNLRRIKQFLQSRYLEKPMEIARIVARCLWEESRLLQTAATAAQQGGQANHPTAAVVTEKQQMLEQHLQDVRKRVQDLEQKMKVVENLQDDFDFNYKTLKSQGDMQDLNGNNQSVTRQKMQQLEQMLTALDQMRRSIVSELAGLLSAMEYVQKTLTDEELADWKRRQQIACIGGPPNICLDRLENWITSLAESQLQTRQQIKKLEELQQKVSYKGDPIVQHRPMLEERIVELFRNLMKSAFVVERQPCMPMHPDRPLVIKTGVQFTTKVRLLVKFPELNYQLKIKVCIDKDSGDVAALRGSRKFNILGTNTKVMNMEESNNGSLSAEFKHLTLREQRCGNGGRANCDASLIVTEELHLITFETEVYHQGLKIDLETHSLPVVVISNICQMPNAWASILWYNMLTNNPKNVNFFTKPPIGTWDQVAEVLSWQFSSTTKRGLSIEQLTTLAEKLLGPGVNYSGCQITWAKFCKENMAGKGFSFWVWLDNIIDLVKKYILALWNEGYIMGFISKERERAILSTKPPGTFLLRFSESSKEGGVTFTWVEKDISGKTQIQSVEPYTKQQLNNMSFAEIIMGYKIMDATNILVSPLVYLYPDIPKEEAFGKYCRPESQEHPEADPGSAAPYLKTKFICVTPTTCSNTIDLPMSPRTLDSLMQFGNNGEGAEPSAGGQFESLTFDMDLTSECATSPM
# ASSAY: Fluorescence Polarization Assay
# TEST_SETTINGS: pH 7.5; 22 °C
# Experimental: Fluorescence polarization (FP) binding assay is utilizing the intrinsic property of the fluorescent probe, which will have low polarization value when free in solution. On binding to a target, the polarization of the probe will increase. Reaction mixtures of full length STAT3 alpha and the probe were placed in wells of a 96-well microtiter plate. The test peptide solution was added to each well. Fluorescence polarization was then read in a Tecan Polarian plate reader. […]
Square brackets hold non-standard residues; d marks the D form. Peptide text beside a SMILES is read from it. ξ: configuration not given here. pY = N[C@@H](Cc1ccc(OP(=O)(O)O)cc1)C(=O)O; Met(O) = CS(=O)CC[C@H](N)C(=O)O; Thr(3ξ) = CC(O)[C@H](N)C(=O)O; αMeP = C[C@@]1(C(=O)O)CCCN1; Pip = O=C(O)[C@@H]1CCCCN1; Ac6c = NC1(C(=O)O)CCCCC1; Nle = CCCC[C@H](N)C(=O)O
OBSERVED_PROPERTY: IC50 (µM)

compound="CCCC[C@H](NC(=O)[C@H](Cc1ccc(OP(=O)(O)O)cc1)NC(C)=O)C(=O)N1CCC[C@H]1C(=O)N[C@@H](CCC(N)=O)C(=O)N[C@H](C(N)=O)C(C)O (stereo partly specified) (Ac-[pY][Nle]PQ[Thr(3ξ)]-NH2)" display_unit=µM numeric_value=0.717

(1) CC(=O)N[C@@H](Cc1ccc(OP(=O)(O)O)cc1)C(=O)N[C@@H](CC(C)C)C(=O)N1CCC[C@@]1(C)C(=O)N[C@@H](CCC(N)=O)C(=O)N[C@H](C(N)=O)C(C)O (stereo partly specified) (Ac-[pY]L[αMeP]Q[Thr(3ξ)]-NH2)
(2) CC(=O)N[C@@H](Cc1ccc(OP(=O)(O)O)cc1)C(=O)N[C@@H](CC(C)C)C(=O)N1CCC[C@H]1C(=O)N[C@@H](CCC(=O)N(C)C)C(=O)N[C@H](C(N)=O)C(C)O (stereo partly specified) (Ac-[pY]LPE(NMe2)[Thr(3ξ)]-NH2)
(3) CC(=O)N[C@@H](Cc1ccc(OP(=O)(O)O)cc1)C(=O)N[C@@H](CC(C)C)C(=O)NC1(C(=O)N[C@@H](CCC(N)=O)C(=O)N[C@H](C(N)=O)C(C)O)CCCCC1 (stereo partly specified) (Ac-[pY]L[Ac6c]Q[Thr(3ξ)]-NH2)
(4) CC(=O)N[C@@H](Cc1ccc(OP(=O)(O)O)cc1)C(=O)N[C@@H](CC(C)C)C(=O)N1CCCC[C@H]1C(=O)N[C@@H](CCC(N)=O)C(=O)N[C@H](C(N)=O)C(C)O (stereo partly specified) (Ac-[pY]L[Pip]Q[Thr(3ξ)]-NH2)
QUERY: Please list these in order of increasing IC50. Thank you! # respond with the labels, arranged in the requested order
RESULT: 4, 1, 3, 2

(a) CC(=O)N[C@@H](Cc1ccc(OP(=O)(O)O)cc1)C(=O)N[C@@H](Cc1ccccc1)C(=O)N1CCC[C@H]1C(=O)N[C@@H](CCC(N)=O)C(=O)N[C@H](C(N)=O)C(C)O (stereo partly specified) (Ac-[pY]FPQ[Thr(3ξ)]-NH2)
(b) CC(=O)N[C@@H](Cc1ccc(OP(=O)(O)O)cc1)C(=O)N[C@@H](CC(C)C)C(=O)N1CCC[C@H]1C(=O)N[C@@H](CC[S+](C)[O-])C(=O)N[C@H](C(N)=O)C(C)O (stereo partly specified) (Ac-[pY]LP[Met(O)][Thr(3ξ)]-NH2)
QUERY: Field: lower recorded IC50 (choose a or b ) Write down the label of the entry you select.
RESULT: a
